Catalogue of pIC50 values
- System: Cullin-3 (CUL3) neddylation
- protocol description: AlphaLISA assay for Cullin-3 (CUL3) neddylation in TF 1 cells
- Format: cell-based
- assay setup: Homo sapiens, TF-1, 3 h, 3 hours treatment
pIC50: −log10 of the molar value.

1. CCN1C(=O)[C@@H](NC(=O)c2cccc(C(F)(F)F)c2)[C@@H](c2ccc(F)cc2)c2c(CN(C#N)CCCN(C)C3COC3)nn(-c3ccccc3)c21 [Compound I-646]	≥ 7.00

Quick one: pIC50 for CCN1C(=O)[C@@H](NC(=O)c2cccc(C(F)(F)F)c2)[C@@H](c2ccc(F)cc2)c2c(C(=O)N3CCS(=O)(=O)C[C@H]3C#N)nn(C3CCOCC3)c21 (mixture of isomers) [Compound I-436] ?
≥ 7.00

Quick one: pIC50 for CCN1C(=O)[C@@H](NC(=O)c2cccc(C(F)(F)F)c2)[C@H](c2ccc(F)cc2)c2c(CNC(=O)C(C)C#N)nn(-c3ccccc3)c21 (some centres unmarked) [Compound I-641] ?
< 6.00

Quick one: pIC50 for CCN1C(=O)[C@H](NC(=O)c2cccc(C(F)(F)F)c2)[C@@H](c2ccc(F)cc2)c2c([C@@H](C)NC#N)nn(-c3ccccc3)c21 [Compound I-637] ?
< 6.00

Quick one: pIC50 for CCN1C(=O)[C@@H](NC(=O)c2cccc(C(F)(F)F)c2)[C@@H](C2CCCC2)c2c(C(=O)N(C)[C@H](C)C#N)nn(C3CCOCC3)c21 [Compound I-524] ?
≥ 7.00

====

- measurement target: DCN1 (DCUND1) protein PONY domain (Homo sapiens (Human), UniProt Q96GG9)
- Sequence (Q96GG9 60-248): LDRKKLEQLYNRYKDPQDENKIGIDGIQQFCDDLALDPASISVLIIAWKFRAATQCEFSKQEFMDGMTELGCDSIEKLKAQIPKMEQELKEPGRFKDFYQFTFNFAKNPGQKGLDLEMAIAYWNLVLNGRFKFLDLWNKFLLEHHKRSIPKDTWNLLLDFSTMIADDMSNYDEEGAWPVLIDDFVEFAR
- protocol description: TR-FRET assay, DCN1 binding with FAM-labeled probe
- assay setup: 24 hr after treatment with compound; read-out: TR FRET IC50 24 hr
- Experimental: A TR-FRET assay was performed to evaluate the ability of the compounds to bind the DCN-1 protein. The TR-FRET assay was designed following the Scott et al. protocol (Scott et al., Nat Chem Biol. 2017 August; 13(8): 850-857. Doi:10.1038/nchembio.2386). […] The TR-FRET ratio between Tb-DCN1 and the FAM-labeled probe was measured in a 384-well opti-plate (Perkin Elmer) using a plate reader (BMG) at 1, 5, and 24 hrs after treatment with compound (final DMSO concentration of 0.1%).
pIC50: −log10 of the molar value.
reported property: pIC50

Check out these entries, answers already filled in.
1. C/C=C/C(=O)NCc1nn(-c2ccccc2)c2c1[C@H](c1ccc(F)cc1)[C@H](NC(=O)c1cccc(C(F)(F)F)c1)C(=O)N2CC (racemic) [Compound I-123]	6.00 to 6.70
2. CCN1C(=O)[C@H](NC(=O)c2cccc(C(F)(F)F)c2)[C@H](c2ccc(F)cc2)c2c(C(=O)N(CC#N)CC(=O)OC)nn(-c3ccccc3)c21 (stereo in doubt) [Compound I-406]	≥ 6.70

Request body: readout pIC50, system DCN1 (DCUND1) protein PONY domain (Homo sapiens (Human), UniProt Q96GG9), query CCN1C(=O)[C@@H](NC(=O)c2ccc3ncsc3c2)[C@@H](C2CC2)c2c(C(=O)N3[C@H](C#N)C[C@H]4C[C@H]43)nn(C3CCOCC3)c21 [Compound I-669] . Return the value.
6.00 to 6.70

Request body: readout pIC50, system DCN1 (DCUND1) protein PONY domain (Homo sapiens (Human), UniProt Q96GG9), query CCN1C(=O)[C@@H](NC(=O)c2c(Cl)cccc2Cl)[C@@H](C2CC2)c2c(C(=O)N3[C@H](C#N)C[C@H]4C[C@H]43)nn(C3CCOCC3)c21 [Compound I-473] . Return the value.
5.52 to 6.00

Request body: readout pIC50, system DCN1 (DCUND1) protein PONY domain (Homo sapiens (Human), UniProt Q96GG9), query CCN1C(=O)[C@@H](NC(=O)c2cccc(C(F)(F)F)c2)[C@@H](c2ccc(F)cc2)c2c(C(=O)N3[C@H](C#N)C[C@H]4C[C@H]43)nn(C3COC3)c21 [Compound I-362] . Return the value.
≥ 6.70

====

Catalogue of IC50 values
- measurement target: DCN1 (DCUND1) protein PONY domain (Homo sapiens (Human))
- protocol description: TR-FRET assay, DCN1 binding with FAM-labeled probe
- assay setup: TR FRET IC50 1 hr (nM), 1 hr after treatment with compound

1. CCN1C(=O)[C@@H](NC(=O)c2ccn(C(F)(F)F)n2)[C@@H](c2ccc(F)cc2)c2c(C(=O)N3CCC[C@H]3C#N)nn(-c3ccccc3)c21	1000 to 3000 nM

Now consider the entry below.
Quick one: IC50 for CCN1C(=O)[C@@H](NC(=O)c2cccc(C(F)(F)F)c2)[C@@H](c2ccc(F)cc2)c2c(C/C=C/C(=O)NCCCO)nn(-c3ccccc3)c21 (racemic) ?
1000 to 3000 nM

====

Catalogue of IC50 values
- measurement target: DCN1 (DCUND1) protein PONY domain (Homo sapiens (Human), UniProt Q96GG9)
- protocol description: TR-FRET assay, DCN1 binding with FAM-labeled probe
- assay setup: TR FRET IC50 1 hr (nM), 1 hr after treatment with compound

Check out these entries, answers already filled in.
1. CCN1C(=O)[C@@H](NC(=O)c2cccc(C(F)(F)F)c2)[C@@H](c2ccc(F)cc2)c2c(CC/C=C\C(=O)N(C)C)nn(-c3ccccc3)c21 (racemic) [Compound I-69]	200 to 1000 nM
2. CCN1C(=O)[C@@H](NC(=O)c2cccc(C(F)(F)F)c2)[C@@H](c2ccc(F)cc2)c2c(CC/C=C\C(=O)NC)nn(-c3ccccc3)c21 (racemic) [Compound I-43]	200 to 1000 nM
3. CCN1C(=O)[C@@H](NC(=O)c2cccc(C(F)(F)F)c2)[C@@H](c2ccc(F)cc2)c2c(C(=O)N3CCC=C3C#N)nn(C3CCOCC3)c21 [Compound I-631]	200 to 1000 nM
4. CCN1C(=O)[C@@H](NC(=O)c2cccc(C(F)(F)F)c2)[C@@H](C2CC2)c2c(C(=O)N3CC[C@H](NC)[C@H]3C#N)nn(C3CCOCC3)c21 (relative stereo) [Compound I-687]	≤ 200 nM

Now consider the entry below.
Quick one: IC50 for CCN1C(=O)[C@@H](NC(=O)c2cccc(C(F)(F)F)c2)[C@@H](c2ccc(F)cc2)c2c([C@@H](C)N(C)C#N)nn(-c3ccccc3)c21 [Compound I-44] ?
200 to 1000 nM

====

Catalogue of IC50 values
- measurement target: DCN1 (DCUND1) protein PONY domain (Homo sapiens (Human), UniProt Q96GG9)
- protocol description: TR-FRET assay, DCN1 binding with FAM-labeled probe
- assay setup: TR FRET IC50 1 hr (nM), 1 hr after treatment with compound

Check out these entries, answers already filled in.
1) CCN1C(=O)[C@@H](NC(=O)c2ccc3c(c2)COC3)[C@@H](C2CC2)c2c(C(=O)N3[C@H](C#N)C[C@H]4C[C@H]43)nn(C3CCOCC3)c21 [Compound I-600]	200 to 1000 nM
2) CCN1C(=O)[C@@H](NC(=O)c2cccc(C(F)(F)F)c2)[C@@H](c2ccc(F)cc2)c2c(C(=O)N(C)CC#N)nn(-c3ccccc3)c21 (racemic) [Compound I-5]	≤ 200 nM
3) CCN1C(=O)[C@@H](NC(=O)N2CCC[C@@H](C(F)(F)F)C2)C(c2ccc(F)cc2)c2c(C(=O)N3CCC[C@H]3C#N)nn(-c3ccccc3)c21 (single isomer, unassigned) [Compound I-464]	1000 to 3000 nM

Quick one: IC50 for CCN1C(=O)[C@H](NC(=O)c2cccc(C(F)(F)F)c2)[C@H](c2ccc(F)cc2)c2c(C(=O)N[C@@H](C)C#N)nn(-c3ccccc3)c21 [Compound I-255] ?
1000 to 3000 nM

Quick one: IC50 for CCN1C(=O)[C@H](NC(=O)c2cccc(C(F)(F)F)c2)[C@H](C2CC2)c2c(C(=O)N(C)C(C)C#N)nn(-c3ccccc3)c21 (some centres unmarked) [Compound I-676] ?
1000 to 3000 nM

====

Catalogue of IC50 values
- measurement target: DCN1 (DCUND1) protein PONY domain (Homo sapiens (Human), UniProt Q96GG9)
- protocol description: TR-FRET assay, DCN1 binding with FAM-labeled probe
- assay setup: TR FRET IC50 1 hr (nM), 1 hr after treatment with compound
- Protocol: A TR-FRET assay was performed to evaluate the ability of the compounds to bind the DCN-1 protein. The TR-FRET assay was designed following the Scott et al. protocol (Scott et al., Nat Chem Biol. 2017 August; 13(8): 850-857. Doi:10.1038/nchembio.2386). […] The TR-FRET ratio between Tb-DCN1 and the FAM-labeled probe was measured in a 384-well opti-plate (Perkin Elmer) using a plate reader (BMG) at 1, 5, and 24 hrs after treatment with compound (final DMSO concentration of 0.1%).

1. CCN1C(=O)[C@@H](NC(=O)N2CCC[C@H](C(F)(F)F)C2)[C@@H](c2ccc(F)cc2)c2c(C(=O)N3CCC[C@H]3C#N)nn(-c3ccccc3)c21 (single isomer, unassigned)	1000 to 3000 nM

Quick one: IC50 for CCN1C(=O)[C@@H](NC(=O)c2cccc(C(F)(F)F)c2)[C@@H](C2CCCC2)c2c(C(=O)N3CCC[C@H]3C#N)nn(C3CCOCC3)c21 ?
1000 to 3000 nM

Quick one: IC50 for CCN1C(=O)[C@@H](NC(=O)c2cccc(C(F)(F)F)c2)[C@@H](c2ccc(F)cc2)c2c(CC/C=C/C(N)=O)nn(-c3ccccc3)c21 ?
200 to 1000 nM

Quick one: IC50 for CCN1C(=O)[C@@H](NC(=O)c2cccc(C(F)(F)F)c2)[C@@H](C2CCCC2)c2c(C(=O)N(C)[C@@H](C)C#N)nn(C3CCOCC3)c21 ?
200 to 1000 nM

Quick one: IC50 for C=CC(=O)N[C@H](C)c1nn(-c2ccccc2)c2c1[C@@H](c1ccc(F)cc1)[C@H](NC(=O)c1nccc(C(F)(F)F)n1)C(=O)N2CC ?
200 to 1000 nM
